The reader will find reported DC50 values listed item by item below.
- target_system: Protein cereblon/Signal transducer and activator of transcription 1-alpha/beta (Homo sapiens, UniProt P42224+Q96SW2)
- Sequence (P42224 whole entry): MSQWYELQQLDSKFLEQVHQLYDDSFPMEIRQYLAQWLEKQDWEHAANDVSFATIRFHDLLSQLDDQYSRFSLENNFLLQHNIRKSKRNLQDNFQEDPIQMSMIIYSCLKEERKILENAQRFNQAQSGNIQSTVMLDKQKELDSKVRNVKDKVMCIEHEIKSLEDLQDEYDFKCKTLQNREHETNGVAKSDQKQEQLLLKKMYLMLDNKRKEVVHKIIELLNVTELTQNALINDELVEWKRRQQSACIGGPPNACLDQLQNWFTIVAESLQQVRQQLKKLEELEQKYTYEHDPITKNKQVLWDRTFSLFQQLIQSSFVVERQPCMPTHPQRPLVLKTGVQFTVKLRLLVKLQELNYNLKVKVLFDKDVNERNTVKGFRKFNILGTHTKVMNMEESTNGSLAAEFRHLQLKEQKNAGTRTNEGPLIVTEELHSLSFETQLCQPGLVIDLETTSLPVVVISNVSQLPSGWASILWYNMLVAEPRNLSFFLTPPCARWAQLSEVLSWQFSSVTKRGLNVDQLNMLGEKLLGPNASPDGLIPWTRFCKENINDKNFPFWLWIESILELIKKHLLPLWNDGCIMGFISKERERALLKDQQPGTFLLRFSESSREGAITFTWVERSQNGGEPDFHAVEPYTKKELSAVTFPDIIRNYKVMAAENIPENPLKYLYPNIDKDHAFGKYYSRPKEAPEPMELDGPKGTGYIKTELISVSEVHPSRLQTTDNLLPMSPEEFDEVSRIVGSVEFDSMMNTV
- Sequence (Q96SW2 whole entry): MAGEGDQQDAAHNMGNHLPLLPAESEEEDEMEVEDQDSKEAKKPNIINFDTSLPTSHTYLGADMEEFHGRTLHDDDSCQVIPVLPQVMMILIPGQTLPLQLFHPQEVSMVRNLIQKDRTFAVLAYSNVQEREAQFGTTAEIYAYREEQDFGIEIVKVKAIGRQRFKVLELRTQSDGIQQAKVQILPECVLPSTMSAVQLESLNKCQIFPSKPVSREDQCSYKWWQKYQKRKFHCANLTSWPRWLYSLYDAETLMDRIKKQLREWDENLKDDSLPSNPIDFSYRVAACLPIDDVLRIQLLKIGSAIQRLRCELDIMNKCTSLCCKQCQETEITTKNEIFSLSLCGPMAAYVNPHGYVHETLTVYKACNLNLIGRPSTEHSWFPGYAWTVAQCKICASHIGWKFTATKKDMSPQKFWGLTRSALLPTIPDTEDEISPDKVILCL
- run_description: Protac activity at E3 ubiquitin ligase/STAT1 in human MOLM-16 cells assessed as degradation of STAT1 incubated for 4 hrs by fluorescent immunoblotting analysis
- Type: cell-based

compound: CCN1CC[C@H]2CC[C@@H](C(=O)N[C@@H](CCC(N)=O)C(=O)N[C@@H](Cc3ccc(S(=O)(=O)C4CC4)cc3)C(=O)N3CCC(CCC#Cc4cccc5c4CN(C4CCC(=O)NC4=O)C5=O)CC3)N2C(=O)[C@@H](NC(=O)c2cc3cc(C(F)(F)P(=O)(O)O)ccc3s2)C1 (stereo partly specified)
sign_qualifier: =
DC50 [nM]: 500
//
compound: CCN1CC[C@H]2CC[C@@H](C(=O)N[C@@H](CNC(N)=O)C(=O)N[C@@H](Cc3ccc(C(C)(C)C)cc3)C(=O)N3CCC(CCC#Cc4cccc5c4CN(C4CCC(=O)NC4=O)C5=O)CC3)N2C(=O)[C@@H](NC(=O)c2cc3cc(C(F)(F)P(=O)(O)O)ccc3s2)C1 (stereo partly specified)
sign_qualifier: >
DC50 [nM]: 1000
//
compound: CCN1CC[C@H]2CC[C@@H](C(=O)N[C@@H](CCC(N)=O)C(=O)N[C@@H](Cc3ccc(NS(=O)(=O)c4ccc(C)cc4)cc3)C(=O)N3CCC(CCC#Cc4cccc5c4CN(C4CCC(=O)NC4=O)C5=O)CC3)N2C(=O)[C@@H](NC(=O)c2cc3cc(C(F)(F)P(=O)(O)O)ccc3s2)C1 (stereo partly specified)
sign_qualifier: =
DC50 [nM]: 250
//
compound: CCN1CC[C@H]2CC[C@@H](C(=O)N[C@@H](CCC(N)=O)C(=O)N[C@@H](Cc3ccc(S(=O)(=O)c4ccccc4)cc3)C(=O)N3CCC(CCC#Cc4cccc5c4CN(C4CCC(=O)NC4=O)C5=O)CC3)N2C(=O)[C@@H](NC(=O)c2cc3cc(C(F)(F)P(=O)(O)O)ccc3s2)C1 (stereo partly specified)
sign_qualifier: =
DC50 [nM]: 250
//
compound: CC(C)(C)c1ccc(C[C@H](NC(=O)[C@H](CCC(N)=O)NC(=O)[C@@H]2CC[C@@H]3CCN(CC(F)F)C[C@H](NC(=O)c4cc5cc(C(F)(F)P(=O)(O)O)ccc5s4)C(=O)N32)C(=O)N2CCC(CCC#Cc3cccc4c3CN(C3CCC(=O)NC3=O)C4=O)CC2)cc1 (stereo partly specified)
sign_qualifier: <
DC50 [nM]: 250
//
compound: COC(=O)N1CC[C@H]2CC[C@@H](C(=O)N[C@@H](CCC(N)=O)C(=O)N[C@@H](Cc3ccc(C(C)(C)C)cc3)C(=O)N3CCC(CCC#Cc4cccc5c4CN(C4CCC(=O)NC4=O)C5=O)CC3)N2C(=O)[C@@H](NC(=O)c2cc3cc(C(F)(F)P(=O)(O)O)ccc3s2)C1 (stereo partly specified)
sign_qualifier: =
DC50 [nM]: 250

Source listed as ChEMBL document CHEMBL4715901.
